The measurements presented in this section are drawn from paper PMC10569036.

assay_notes: shake flask on a mixture of 185; loss from the water phase only; LC-Orbitrap peak areas
test_conditions: room
readout_kind: log partition butyl acetate / HPLC water, unbuffered, traces of methanol / DMSO (log10)
Provide the reading as a plain figure in log10.

# count of solved cases: 2
Cc1ccc([N+](=O)[O-])cc1S(=O)(=O)O
1.798
CCCCNS(=O)(=O)c1ccc(C)cc1
1.21

log partition butyl acetate / HPLC water, unbuffered, traces of methanol / DMSO reading for O=C(O)c1ccccc1C(c1ccc(O)cc1)c1ccc(O)cc1 : 0.116

log partition butyl acetate / HPLC water, unbuffered, traces of methanol / DMSO reading for NC(=O)N/N=C/c1ccc([N+](=O)[O-])o1 : 0.5487

log partition butyl acetate / HPLC water, unbuffered, traces of methanol / DMSO reading for CCc1ccc(C(=O)NN(C(=O)c2cc(C)cc(C)c2)C(C)(C)C)cc1 : 1.55

log partition butyl acetate / HPLC water, unbuffered, traces of methanol / DMSO reading for O=C1OC(=O)C2C3C=CC(C3)C12 (stereo not shown) : -0.2228

log partition butyl acetate / HPLC water, unbuffered, traces of methanol / DMSO reading for OCCN(CCO)c1ccccc1 : 0.5439
